- tested.system: GRM5 (Homo sapiens)
- Construct: purchased Promega (in-house HiBiT-GPCR construct library, NanoBRET)
- Sequence (P41594 21-1212): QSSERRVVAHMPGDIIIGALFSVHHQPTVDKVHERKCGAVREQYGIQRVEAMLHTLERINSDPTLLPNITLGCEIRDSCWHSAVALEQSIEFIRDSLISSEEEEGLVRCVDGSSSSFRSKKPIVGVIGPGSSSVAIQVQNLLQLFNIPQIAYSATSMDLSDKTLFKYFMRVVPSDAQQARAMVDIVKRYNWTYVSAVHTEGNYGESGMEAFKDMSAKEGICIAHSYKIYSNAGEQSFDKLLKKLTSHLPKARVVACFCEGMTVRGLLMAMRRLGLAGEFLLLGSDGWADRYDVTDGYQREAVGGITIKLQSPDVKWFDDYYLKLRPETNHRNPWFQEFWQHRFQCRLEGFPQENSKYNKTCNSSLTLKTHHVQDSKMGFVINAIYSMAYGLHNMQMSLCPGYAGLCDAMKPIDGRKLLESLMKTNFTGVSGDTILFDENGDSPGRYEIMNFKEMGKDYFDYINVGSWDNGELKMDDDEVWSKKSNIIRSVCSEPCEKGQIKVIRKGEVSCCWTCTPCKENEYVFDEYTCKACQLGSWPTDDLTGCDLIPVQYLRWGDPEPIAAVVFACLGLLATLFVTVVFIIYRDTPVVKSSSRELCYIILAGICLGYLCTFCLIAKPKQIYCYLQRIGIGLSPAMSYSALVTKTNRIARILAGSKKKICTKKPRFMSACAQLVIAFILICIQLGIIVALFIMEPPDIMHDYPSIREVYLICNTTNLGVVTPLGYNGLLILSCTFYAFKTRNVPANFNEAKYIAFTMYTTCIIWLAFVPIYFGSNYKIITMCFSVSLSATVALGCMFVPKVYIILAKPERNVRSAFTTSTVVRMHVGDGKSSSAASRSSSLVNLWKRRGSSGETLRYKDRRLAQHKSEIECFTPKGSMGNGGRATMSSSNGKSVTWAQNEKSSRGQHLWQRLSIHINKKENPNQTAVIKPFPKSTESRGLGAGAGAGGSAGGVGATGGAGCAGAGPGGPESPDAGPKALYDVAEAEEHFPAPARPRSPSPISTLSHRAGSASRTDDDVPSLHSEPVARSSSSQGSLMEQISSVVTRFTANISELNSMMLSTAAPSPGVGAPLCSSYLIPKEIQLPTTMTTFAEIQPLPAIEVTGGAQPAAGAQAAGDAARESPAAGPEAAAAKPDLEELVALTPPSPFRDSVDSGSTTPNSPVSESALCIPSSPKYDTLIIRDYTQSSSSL
- assay.method.text: NanoBRET screen HiBiT-GRM5 in HEK293
- Format: binding
- protocol.conditions: GRM5; tracer 0.1μM

structure.notation: O=C(CCOCCOCCOCCOCCNC(=O)CCc1ccc2n1[B-](F)(F)[N+]1=C(c3ccc[nH]3)C=CC1=C2)NCCCN1CCN(C2=Nc3ccccc3Oc3ccc(Cl)cc32)CC1
NanoBRET Fold Response: 1.00
//
structure.notation: N#CN=C(NCCCOc1cccc(CN2CCCCC2)c1)NCCNC(=O)CCOCCOCCOCCOCCNC(=O)CCc1ccc2n1[B-](F)(F)[N+]1=C(c3ccc[nH]3)C=CC1=C2
NanoBRET Fold Response: 1.01
//
structure.notation: CCCn1c(=O)c2[nH]c(-c3ccc(OCC(=O)NCCNC(=O)CCOCCNC(=O)c4ccc(CNC(=O)CCc5ccc6n5[B-](F)(F)[N+]5=C(c7ccc[nH]7)C=CC5=C6)cc4)cc3)nc2n(CCC)c1=O
NanoBRET Fold Response: 1.01
//
structure.notation: CC(C)N(CC[C@H](c1ccccc1)c1cc(CCNC(=O)c2ccc(CNC(=O)CCc3ccc4n3[B-](F)(F)[N+]3=C(c5ccc[nH]5)C=CC3=C4)cc2)ccc1O)C(C)C
NanoBRET Fold Response: 1.00
//
structure.notation: COc1ccccc1N1CCN(CCCCN2C(=O)c3ccc(CNC(=O)CCOCCOCCOCCOCCNC(=O)CCc4ccc5n4[B-](F)(F)[N+]4=C(c6ccc[nH]6)C=CC4=C5)cc3C2=O)CC1
NanoBRET Fold Response: 0.96

###

In this section we review reported NanoBRET Fold Response values for a set of molecules.
- tested.system: HRH2 (Homo sapiens, UniProt P25021)
- Construct: purchased Promega (in-house HiBiT-GPCR construct library, NanoBRET)
- Sequence (P25021 whole entry): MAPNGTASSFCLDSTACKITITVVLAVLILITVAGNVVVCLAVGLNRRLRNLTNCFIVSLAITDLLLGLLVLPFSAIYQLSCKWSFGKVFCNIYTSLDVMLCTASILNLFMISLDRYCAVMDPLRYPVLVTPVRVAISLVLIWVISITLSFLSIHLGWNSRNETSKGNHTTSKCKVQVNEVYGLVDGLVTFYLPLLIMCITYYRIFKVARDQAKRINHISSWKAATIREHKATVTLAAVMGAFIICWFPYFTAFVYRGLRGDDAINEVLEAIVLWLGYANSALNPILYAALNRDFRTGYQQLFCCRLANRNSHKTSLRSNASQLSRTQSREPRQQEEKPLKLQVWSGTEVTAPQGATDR
- assay.method.text: NanoBRET screen HiBiT-HRH2 in HEK293
- Assay type: binding
- protocol.conditions: HRH2; tracer 0.1μM

structure.notation: O=C(CCOCCOCCOCCOCCNC(=O)CCc1ccc2n1[B-](F)(F)[N+]1=C(c3ccc[nH]3)C=CC1=C2)NCCCN1CCN(C2=Nc3ccccc3Oc3ccc(Cl)cc32)CC1
NanoBRET Fold Response: 0.79
--
structure.notation: N#CN=C(NCCCOc1cccc(CN2CCCCC2)c1)NCCNC(=O)CCOCCOCCOCCOCCNC(=O)CCc1ccc2n1[B-](F)(F)[N+]1=C(c3ccc[nH]3)C=CC1=C2
NanoBRET Fold Response: 5.51
--
structure.notation: CC(C)N(CC[C@H](c1ccccc1)c1cc(CCNC(=O)c2ccc(CNC(=O)CCc3ccc4n3[B-](F)(F)[N+]3=C(c5ccc[nH]5)C=CC3=C4)cc2)ccc1O)C(C)C
NanoBRET Fold Response: 1.05

###

- tested.system: MC3R (Homo sapiens)
- Construct: purchased Promega (in-house HiBiT-GPCR construct library, NanoBRET)
- Sequence (P41968 whole entry): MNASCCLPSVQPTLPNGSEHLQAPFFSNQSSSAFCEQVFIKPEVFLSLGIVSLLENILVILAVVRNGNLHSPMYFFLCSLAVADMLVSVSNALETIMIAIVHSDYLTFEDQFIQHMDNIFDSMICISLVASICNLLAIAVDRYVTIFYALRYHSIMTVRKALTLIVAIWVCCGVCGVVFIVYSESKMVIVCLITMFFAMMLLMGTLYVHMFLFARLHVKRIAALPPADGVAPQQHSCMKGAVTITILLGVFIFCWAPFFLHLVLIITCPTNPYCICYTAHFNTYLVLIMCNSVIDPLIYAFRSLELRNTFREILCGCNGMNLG
- assay.method.text: NanoBRET screen HiBiT-MC3R in HEK293
- Format: binding
- protocol.conditions: MC3R; tracer 1μM
In this section we review reported NanoBRET Fold Response values for a set of molecules.
observed.property: NanoBRET Fold Response

molecule: N#CN=C(NCCCOc1cccc(CN2CCCCC2)c1)NCCNC(=O)CCOCCOCCOCCOCCNC(=O)CCc1ccc2n1[B-](F)(F)[N+]1=C(c3ccc[nH]3)C=CC1=C2 [Aminopotentidine-2-NB590]
observed.property: NanoBRET Fold Response
assay.value: 1.01
//
molecule: CCCn1c(=O)c2[nH]c(-c3ccc(OCC(=O)NCCNC(=O)CCOCCNC(=O)c4ccc(CNC(=O)CCc5ccc6n5[B-](F)(F)[N+]5=C(c7ccc[nH]7)C=CC5=C6)cc4)cc3)nc2n(CCC)c1=O [XAC-3-NB590]
observed.property: NanoBRET Fold Response
assay.value: 1.10
//
molecule: O=C(CCc1ccc2n1[B-](F)(F)[N+]1=C(c3ccc[nH]3)C=CC1=C2)NCCOCCOCCNC(=O)OCCOCCN1CCN(C2=Nc3ccccc3Sc3ccccc32)CC1 [Quetiapine-a-2-NB590]
observed.property: NanoBRET Fold Response
assay.value: 1.08
//
molecule: COc1ccccc1N1CCN(CCCCN2C(=O)c3ccc(CNC(=O)CCOCCNC(=O)c4ccc(CNC(=O)CCc5ccc6n5[B-](F)(F)[N+]5=C(c7ccc[nH]7)C=CC5=C6)cc4)cc3C2=O)CC1 [NAN-190-3-NB590]
observed.property: NanoBRET Fold Response
assay.value: 0.95
//
molecule: Cc1nc2n(c(=O)c1CCN1CCC(c3noc4cc(F)ccc34)CC1)CCCC2OC(=O)NCCOCCOCCOCCOCCNC(=O)CCc1ccc2n1[B-](F)(F)[N+]1=C(c3ccc[nH]3)C=CC1=C2 (centres unmarked) [Risperidone-2-NB590]
observed.property: NanoBRET Fold Response
assay.value: 0.95
//
molecule: O=C(CCOCCOCCOCCOCCNC(=O)CCc1ccc2n1[B-](F)(F)[N+]1=C(c3ccc[nH]3)C=CC1=C2)NCCCN1CCN(C2=Nc3ccccc3Oc3ccc(Cl)cc32)CC1 [Loxapine-a-2-NB590]
observed.property: NanoBRET Fold Response
assay.value: 1.00
//
molecule: Cc1cc2c(s1)Nc1ccccc1N=C2N1CCN(CCCNC(=O)CCOCCOCCOCCOCCNC(=O)CCc2ccc3n2[B-](F)(F)[N+]2=C(c4ccc[nH]4)C=CC2=C3)CC1 [Olanzapine-a-2-NB590]
observed.property: NanoBRET Fold Response
assay.value: 1.12
//
molecule: O=C(CCc1ccc2n1[B-](F)(F)[N+]1=C(c3ccc[nH]3)C=CC1=C2)NCc1ccc(C(=O)NCCOCCC(=O)N[C@@H]2CC[C@@]3(O)[C@H]4Cc5ccc(O)c6c5[C@@]3(CCN4CC3CC3)[C@H]2O6)cc1 [Naltrexone-3-NB590]
observed.property: NanoBRET Fold Response
assay.value: 1.11
//
molecule: CC(C)N(CC[C@H](c1ccccc1)c1cc(CCNC(=O)c2ccc(CNC(=O)CCc3ccc4n3[B-](F)(F)[N+]3=C(c5ccc[nH]5)C=CC3=C4)cc2)ccc1O)C(C)C [Tolterodine-BZ-NB590]
observed.property: NanoBRET Fold Response
assay.value: 1.01
//
molecule: CC(C)N(CC[C@H](c1ccccc1)c1cc(CCNC(=O)CCOCCOCCOCCOCCNC(=O)CCc2ccc3n2[B-](F)(F)[N+]2=C(c4ccc[nH]4)C=CC2=C3)ccc1O)C(C)C [Tolterodine-2-NB590]
observed.property: NanoBRET Fold Response
assay.value: 1.04
//
molecule: COc1ccccc1N1CCN(CCCCN2C(=O)c3ccc(CNC(=O)CCOCCOCCOCCOCCNC(=O)CCc4ccc5n4[B-](F)(F)[N+]4=C(c6ccc[nH]6)C=CC4=C5)cc3C2=O)CC1 [NAN-190-2-NB590]
observed.property: NanoBRET Fold Response
assay.value: 1.00

###

- tested.system: PTGIR (Homo sapiens, UniProt P43119)
- Construct: purchased Promega (in-house HiBiT-GPCR construct library, NanoBRET)
- Sequence (P43119 whole entry): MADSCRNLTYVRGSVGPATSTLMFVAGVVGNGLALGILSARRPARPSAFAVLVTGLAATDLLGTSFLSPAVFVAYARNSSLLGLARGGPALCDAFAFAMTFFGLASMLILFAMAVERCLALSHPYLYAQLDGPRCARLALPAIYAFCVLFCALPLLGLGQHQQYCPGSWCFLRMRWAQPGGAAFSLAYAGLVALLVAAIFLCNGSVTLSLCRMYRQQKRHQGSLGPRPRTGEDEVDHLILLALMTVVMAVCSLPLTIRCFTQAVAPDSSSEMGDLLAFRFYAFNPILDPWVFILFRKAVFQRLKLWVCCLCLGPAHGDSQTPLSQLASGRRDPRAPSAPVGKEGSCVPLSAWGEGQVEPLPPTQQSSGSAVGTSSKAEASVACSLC
- assay.method.text: NanoBRET screen HiBiT-PTGIR in HEK293
- Type: binding
- protocol.conditions: PTGIR; tracer 1μM

molecule: COc1ccccc1N1CCN(CCCCN2C(=O)c3ccc(CNC(=O)CCOCCNC(=O)c4ccc(CNC(=O)CCc5ccc6n5[B-](F)(F)[N+]5=C(c7ccc[nH]7)C=CC5=C6)cc4)cc3C2=O)CC1
NanoBRET Fold Response: 1.01
--
molecule: CC(C)N(CC[C@H](c1ccccc1)c1cc(CCNC(=O)c2ccc(CNC(=O)CCc3ccc4n3[B-](F)(F)[N+]3=C(c5ccc[nH]5)C=CC3=C4)cc2)ccc1O)C(C)C
NanoBRET Fold Response: 1.04
--
molecule: CN(C)CCC=C1c2ccccc2CCc2ccc(C(=O)NCCNC(=O)CCOCCOCCOCCOCCNC(=O)CCc3ccc4n3[B-](F)(F)[N+]3=C(c5ccc[nH]5)C=CC3=C4)cc21
NanoBRET Fold Response: 0.98
--
molecule: O=C(CCOCCOCCOCCOCCNC(=O)CCc1ccc2n1[B-](F)(F)[N+]1=C(c3ccc[nH]3)C=CC1=C2)NCCCN1CCN(C2=Nc3ccccc3Oc3ccc(Cl)cc32)CC1
NanoBRET Fold Response: 1.04
--
molecule: CCCn1c(=O)c2[nH]c(-c3ccc(OCC(=O)NCCNC(=O)CCOCCNC(=O)c4ccc(CNC(=O)CCc5ccc6n5[B-](F)(F)[N+]5=C(c7ccc[nH]7)C=CC5=C6)cc4)cc3)nc2n(CCC)c1=O
NanoBRET Fold Response: 1.05
--
molecule: COc1ccccc1N1CCN(CCCCN2C(=O)c3ccc(CNC(=O)CCOCCOCCOCCOCCNC(=O)CCc4ccc5n4[B-](F)(F)[N+]4=C(c6ccc[nH]6)C=CC4=C5)cc3C2=O)CC1
NanoBRET Fold Response: 1.02
--
molecule: O=C(CCc1ccc2n1[B-](F)(F)[N+]1=C(c3ccc[nH]3)C=CC1=C2)NCc1ccc(C(=O)NCCOCCC(=O)N[C@@H]2CC[C@@]3(O)[C@H]4Cc5ccc(O)c6c5[C@@]3(CCN4CC3CC3)[C@H]2O6)cc1 [Naltrexone-3-NB590]
NanoBRET Fold Response: 1.17
